From: PubChem BioAssay (NCI)

- System: SK-MEL-28 melanoma
- Test details: NCI-60 one-dose screen, 48 h (100 = growth as untreated, 0 = no growth, -100 = all killed)
- Test context: 10 µM unless noted
The panel holds about 83,000 compounds, 20% with a hit somewhere; the sample as a whole holds those more often. Active and inactive are the calls of the source. The calls were made as follows: active = growth percent below 10; inactive = the rest.
Measurement label: growth

COc1ccc(Nc2ncnc3c2sc2nc(C)cc(C)c23)cc1 = 105% (inactive)

Entry "O=C(CSc1ccc(Cl)cc1)Nc1ccc(-c2nc3ccccc3s2)c(Cl)c1" , growth reported as 108% (inactive)

Entry "Clc1cc(Br)ccc1-c1ccc(CNCC2CCNCC2)o1" , growth reported as 42.3% (inactive)

Entry CCC(=O)NC(O)C(Cl)(Cl)C(C)Cl (stereo not given) , growth reported as 104% (inactive)

Entry "C=CCn1c(C)nc2cc(Nc3nc(N4CCCC4)nc4nc[nH]c34)ccc21" , growth reported as 30.3% (inactive)

* * *

- Test system: OVCAR-8 ovarian
- Test details: NCI-60 one-dose screen, 48 h (100 = growth as untreated, 0 = no growth, -100 = all killed)
- Test context: 10 µM unless noted
This is part of a sample that, as a whole, favours compounds with a hit. Of some 83,000 tested, about 20% had one in any assay.
Measurement label: growth (%)
// note: answer is a bare numeric in %

Use these answered entries as a reference point.
O=C(NNC(=S)Nc1ccccc1)c1ccc(Nc2ncnc3c2cnn3-c2cccc(Br)c2)cc1 = 110
FC(F)(F)C1=NNC(c2ccc3ccccc3c2)=NN1 = 97.4
Cc1ccc2oc(=O)cc(-c3nc4ccc([N+](=O)[O-])cc4[nH]3)c2c1 = 55.6

--- query ---
Hey, OVCAR-8 ovarian data for CNCc1ccccc1CN(CC(=O)Nc1ccc2c(c1)CC1(C2)C(=O)Nc2ncccc21)C(=O)C(C)(C)C (centres undefined) : growth came out at 98.9

* * *

growth listing for selected molecules.
- Tested on: SN12C renal
- Test details: NCI-60 one-dose screen, 48 h (100 = growth as untreated, 0 = no growth, -100 = all killed)
- Test context: 10 µM unless noted
- Protocol: Growth inhibition of the SN12C human tumor cell line is measured as a screen for anti-cancer activity. Cells are grown in 96 well plates and exposed to the test compound for 48 hours. Compounds are tested at a single concentration, which is 10^-5 M for most compounds. The reported endpoint is percent growth (GI% or GIPRCNT), where numbers from 0 - 100% represent growth inhibition, and numbers from -100% - 0 represent cell death. For example, a value of 40 represents 60% growth inhibition. […]
Compounds without any hit were thinned out: in the full panel of roughly 83,000, 20% have a hit.
// note: answer is a bare numeric in %

Use these answered entries as a reference point.
COc1cc(/C=C2\C(=O)Nc3ccc(N(C)C)cc32)cc(OC)c1OC = 25.2
CCNS(=O)(=O)c1ccc(C)cc1 = 98.5

Entry "COc1cccc(NC(=O)[C@H](C(C)C)n2c(=O)[nH]c3ccccc3c2=O)c1" , growth reported as 105

Entry "O=C1C(Cl)=C(N/N=c2/[nH][nH]/c(=N/NC3=C(Cl)C(=O)c4ccccc4C3=O)c3ccccc23)C(=O)c2ccccc21" , growth reported as 56.4

Entry "COc1cc(/C=C/c2ccc3c(Br)cc(Br)c(O)c3n2)ccc1O" , growth reported as 52.8

Entry COc1cc(C2CC(c3ccc(Nc4ccnc5cc(Cl)ccc45)cc3)=NN2c2ccccc2)cc(OC)c1OC (centres undefined) , growth reported as 76.3

Entry "Cn1c(=O)c2[nH]c(Cc3ccc4c(c3)OCO4)nc2n(C)c1=O" , growth reported as 95.1

Entry "COc1ccc(/C=c2\c(=O)n(-c3ccccc3)c3nn4c(=O)c(=O)[nH]nc4n23)cc1" , growth reported as 108

Entry "COc1cc(-c2n/c(=C\c3c(O)[nH]c4cc(Cl)ccc34)cc3c2=Nc2ccccc2-3)cc(OC)c1OC" , growth reported as 78.4
